- ASSAY_TARGET: Factor X, P00742
- Sequence (P00742 whole entry, looked up): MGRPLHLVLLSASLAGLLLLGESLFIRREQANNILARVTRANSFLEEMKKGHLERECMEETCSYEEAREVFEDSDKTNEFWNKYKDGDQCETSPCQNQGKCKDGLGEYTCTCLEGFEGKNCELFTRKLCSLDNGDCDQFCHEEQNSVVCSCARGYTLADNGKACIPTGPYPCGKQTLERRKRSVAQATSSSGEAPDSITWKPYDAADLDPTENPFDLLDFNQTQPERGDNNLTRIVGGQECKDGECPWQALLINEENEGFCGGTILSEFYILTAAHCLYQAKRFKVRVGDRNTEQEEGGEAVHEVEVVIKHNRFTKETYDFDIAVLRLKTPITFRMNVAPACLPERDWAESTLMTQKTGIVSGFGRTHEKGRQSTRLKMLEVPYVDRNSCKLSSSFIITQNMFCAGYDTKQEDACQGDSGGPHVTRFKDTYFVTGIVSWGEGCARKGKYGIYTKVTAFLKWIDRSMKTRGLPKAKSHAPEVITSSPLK
MEASUREMENT_NAME: kcat (s⁻¹)

- PROTEIN: "FIXa-N260S/R318Y/R338E/R403E/E410N (protein) chain 1: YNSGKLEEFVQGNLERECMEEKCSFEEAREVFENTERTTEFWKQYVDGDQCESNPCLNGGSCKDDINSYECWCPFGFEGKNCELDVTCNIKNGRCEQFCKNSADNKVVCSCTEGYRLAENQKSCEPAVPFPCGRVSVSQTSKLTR chain 2: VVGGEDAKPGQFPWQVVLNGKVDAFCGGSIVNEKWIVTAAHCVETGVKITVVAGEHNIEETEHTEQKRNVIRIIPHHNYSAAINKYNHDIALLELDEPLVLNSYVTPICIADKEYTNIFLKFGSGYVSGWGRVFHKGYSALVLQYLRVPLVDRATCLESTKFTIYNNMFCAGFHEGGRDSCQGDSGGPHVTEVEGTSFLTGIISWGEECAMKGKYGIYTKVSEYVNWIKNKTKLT"
  MEASUREMENT_NAME: "kcat"
  OBSERVED_VALUE: 3.8
- PROTEIN: "FIXa-R338E/T343R/R403E (protein) chain 1: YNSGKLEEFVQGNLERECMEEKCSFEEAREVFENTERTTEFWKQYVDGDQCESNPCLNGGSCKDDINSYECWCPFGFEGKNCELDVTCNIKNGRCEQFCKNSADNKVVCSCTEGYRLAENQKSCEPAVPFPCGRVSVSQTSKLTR chain 2: VVGGEDAKPGQFPWQVVLNGKVDAFCGGSIVNEKWIVTAAHCVETGVKITVVAGEHNIEETEHTEQKRNVIRIIPHHNYNAAINKYNHDIALLELDEPLVLNSYVTPICIADKEYTNIFLKFGSGYVSGWGRVFHKGRSALVLQYLRVPLVDRATCLESTKFRIYNNMFCAGFHEGGRDSCQGDSGGPHVTEVEGTSFLTGIISWGEECAMKGKYGIYTKVSEYVNWIKEKTKLT"
  MEASUREMENT_NAME: "kcat"
  OBSERVED_VALUE: 6.9
- PROTEIN: "FIXa-K228N/K247N/N249S/R318Y/R338E/T343R/R403E/E410N (protein) chain 1: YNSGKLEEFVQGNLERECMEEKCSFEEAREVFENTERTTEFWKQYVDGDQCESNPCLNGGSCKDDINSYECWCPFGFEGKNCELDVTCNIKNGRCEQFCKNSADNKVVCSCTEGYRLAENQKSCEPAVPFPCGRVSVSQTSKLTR chain 2: VVGGEDAKPGQFPWQVVLNGKVDAFCGGSIVNEKWIVTAAHCVETGVNITVVAGEHNIEETEHTEQNRSVIRIIPHHNYNAAINKYNHDIALLELDEPLVLNSYVTPICIADKEYTNIFLKFGSGYVSGWGRVFHKGYSALVLQYLRVPLVDRATCLESTKFRIYNNMFCAGFHEGGRDSCQGDSGGPHVTEVEGTSFLTGIISWGEECAMKGKYGIYTKVSEYVNWIKNKTKLT"
  MEASUREMENT_NAME: "kcat"
  OBSERVED_VALUE: 9.9
- PROTEIN: "FIXa-Y155F/R338E/T343R/R403E (protein) chain 1: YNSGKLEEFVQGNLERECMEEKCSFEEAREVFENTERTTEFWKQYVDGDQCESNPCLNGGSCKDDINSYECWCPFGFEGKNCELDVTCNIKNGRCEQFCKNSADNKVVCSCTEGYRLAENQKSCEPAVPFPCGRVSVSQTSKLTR chain 2: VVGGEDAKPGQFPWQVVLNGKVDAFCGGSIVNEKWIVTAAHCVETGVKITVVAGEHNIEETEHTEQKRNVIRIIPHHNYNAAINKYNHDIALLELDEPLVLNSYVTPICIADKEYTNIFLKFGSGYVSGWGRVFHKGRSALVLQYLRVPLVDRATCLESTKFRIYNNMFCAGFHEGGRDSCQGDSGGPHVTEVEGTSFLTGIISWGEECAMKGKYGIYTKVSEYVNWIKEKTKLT"
  MEASUREMENT_NAME: "kcat"
  OBSERVED_VALUE: 5.2
